targetOrTestSystem: T1, BAF Gly16Arg (Cys-to-Ala background) (Homo sapiens, UniProt O75531 1-89, G16R;C67A;C77A;C80A;C85A)
T1 sequence: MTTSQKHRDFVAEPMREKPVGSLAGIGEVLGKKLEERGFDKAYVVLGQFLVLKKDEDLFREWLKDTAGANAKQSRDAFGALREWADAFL
assayDetails: ITC; unphosphorylated; 288 K; mean of 2; ITC: 50 mM Hepes pH 7.4, 150 mM NaCl, 288 K; 10-20 uM BAF monomer in cell, 31-33 uM dsDNA in syringe
testContext: protein: recombinant; tags: His8-TEV, cleaved; chain copies: 2

| binder | Kd / nM |
| --- | --- |
| 22-nt dsDNA (dsDNA) DNA 1: CTAGGGTTAGGGTTAGGGTTAG DNA 2: CTAACCCTAACCCTAACCCTAG | 16.3 |
